Below is a list of entries, each paired with its recorded % Change Compared to pH 7.4 + Calcium value.
ASSAY_SYSTEM: T1, recombinant, soluble human ASGR-1 (human, UniProt P07306 62-291)
T1 construct: biotinylated in the binning assay; also called soluble huASGR-1; Soluble ASGR-1 (Amgen)
T1 sequence: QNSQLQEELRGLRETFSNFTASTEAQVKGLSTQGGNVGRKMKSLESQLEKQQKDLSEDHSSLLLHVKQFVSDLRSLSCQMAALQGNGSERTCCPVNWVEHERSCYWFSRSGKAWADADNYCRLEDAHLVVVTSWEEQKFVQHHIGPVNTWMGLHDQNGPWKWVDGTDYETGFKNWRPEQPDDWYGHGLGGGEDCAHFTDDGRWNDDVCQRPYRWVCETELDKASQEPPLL
MEASUREMENT_DESCRIPTION: Octet BLI dissociation, pH 5.6 plus calcium
Enter the number, and then the unit.

Here's what some known entries look like.
4A2 (antibody, V domains shown, hybridoma mAb) VH: QVQLVQSGTEVKKPGASVKVSCKASGYTFTNYDINWVRQATGQGLEWMGWMHPNSGNTGYAQKFQGRVTLTRNTSISTAYMELSSLRSEDTAVYYCASSSGWYYFDYWGQGTLVTVSS VL: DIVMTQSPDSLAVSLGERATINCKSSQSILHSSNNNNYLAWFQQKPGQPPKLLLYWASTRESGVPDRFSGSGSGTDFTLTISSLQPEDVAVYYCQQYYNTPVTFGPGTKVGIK	-3%
190E6 (antibody, V domains shown, hybridoma mAb) VH: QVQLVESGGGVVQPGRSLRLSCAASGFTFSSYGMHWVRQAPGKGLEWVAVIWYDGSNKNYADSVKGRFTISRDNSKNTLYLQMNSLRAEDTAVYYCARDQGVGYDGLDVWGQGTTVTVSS VL: DIQMTQSPSSLSASVGDRVTITCRTSQGIGNYLAWFQQKPGKAPKSLLYKASSLQSGVPSKFSGSGSGTDFTLTISSLQPEDFATYYCQQYMTYPLTFGGGTKVEIK	-12%

So what's the measured % Change Compared to pH 7.4 + Calcium for this one? 22G5 (antibody, V domains shown, hybridoma mAb) VH: EVQLLESGGGLVQPGGSLRLSCAASGFTFSSYAMNWVRQAPGMGLEWVSVISRSGGYTYYADSVKGRFTISRDNSKNTLYLQMNSLRAEDTAVYYCASRLAVAGSEAFDIWGQGTLVTVSS VL: DIQMTQSPSSLSASVGDRVTITCRASQNISSYLNWYQQKQGKAPKLLIYAASSLQNGVPSRFSGRGSGTDFTLTISSLQPEDFATYYCQQSYRTPLFTFGPGTKVDFK 35%
